B1: Formin-binding protein 4, residues 200 to 261; numbered along this chain, Q8N3X1 (parent)
chain: SGWQYDTQCSLAGVGIEMGDWQEVWDENTGCYYYWNTQTNEVTWELPQYLATQVQGLQHYQP

variants of: B1; test: abundance fitness (aPCA) (normalised: wild type 0, dead -1); higher = more abundant; growth selection in yeast, the domain comes from the species named; details: Homo sapiens
MEASURE: abundance fitness
Answer with the value's number alone.

Examples with answers:
E45W = -0.598
L11H = -0.559
D26A = -0.176
G15L = -0.638
L11N = -0.79
E27C = -0.213

Please give the documented abundance fitness of "L50M"
-0.52

Respond only with abundance fitness recorded for "S10A"
-0.266

Look up and state reported abundance fitness for "E41C"
-0.409

Please give measured abundance fitness of the following entry: "E45F"
-0.398

Tell us which abundance fitness value is on record for "G15Q"
0.1

Please give measured abundance fitness of the following entry: "D6C"
-0.342
